Entry source: PubChem BioAssay

Please go through the items and note down their binding (% of control).
# Tested on: anti-desmoglein-3 scFv antibody binding to human DSG3
# Test summary: inhibitors of anti-DSG3 scFv binding to DSG3, pilot screen, biochemical, validation compound set, bead-based, flow cytometry (AID 588368);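 further: signal is the median channel fluorescence of bead-bound GFP antibody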
# Protocol conditions: Protein G beads, DSG3-Fc, scFv-GFP binding, at 10 µM, stronger effect = lower value
Give the value, in units of %, as a plain number.

Req: Reported binding (% of control) for anti-desmoglein-3 scFv antibody binding to human DSG3, given `COc1cc(/C=C/C(=O)N2CCCC2)cc(OC)c1OC` ?
Resp: 95.1

Req: Entry to check: `CC(=O)OCC(=O)[C@@]12OC(C)(C)O[C@@H]1C[C@H]1[C@@H]3C[C@H](F)C4=CC(=O)C=C[C@]4(C)[C@@]3(F)[C@@H](O)C[C@@]12C`
Resp: 91.8

Req: Entry to check: CC(C(=O)O)c1ccc(N2Cc3ccccc3C2=O)cc1 (stereo unspecified)
Resp: 107

Req: Entry to check: `O=C(NCCc1nc2ccccc2[nH]1)c1cccc(Br)c1`
Resp: 97.8

Req: Entry to check: CC(=O)N1N=C(c2cccs2)CC1c1ccc(C)o1 (stereo unspecified)
Resp: 96.7

Req: Entry to check: COc1ccc(CCN=C(N)C(C)c2ccccc2)cc1OC (stereo unspecified)
Resp: 97.3

Req: Entry to check: `N=C1C(c2ccccc2)=C(O)CN1CCCO`
Resp: 93.8

Req: Entry to check: `Cc1cnc(C(=O)NCCc2ccc(S(=O)(=O)NC(=O)NC3CCCCC3)cc2)cn1`
Resp: 104

Req: Entry to check: `CNCCCN1c2ccccc2CCc2ccccc21`
Resp: 109

Req: Entry to check: `COC(=O)c1ccc(CC(=O)c2ccc(O)cc2O)o1`
Resp: 109

Req: Entry to check: `COc1cc2c(cc1O)CC[C@@H]1[C@@H]2CC[C@]2(C)[C@@H](O)CC[C@@H]12`
Resp: 106

Req: Entry to check: `O=C1c2ccccc2C(=O)C1c1ccccc1`
Resp: 102

Req: Entry to check: `CC1(C)Cc2nc3oc4c(NCc5ccccc5)ncnc4c3cc2CO1`
Resp: 105

Req: Entry to check: Cc1ccccc1OCC(O)CN1CCN(C)CC1 (stereo unspecified)
Resp: 103

Req: Entry to check: COc1cc(C2C(C(=O)c3ccc(C)o3)=C(O)C(=O)N2Cc2cccnc2)ccc1O (stereo unspecified)
Resp: 99.4

Req: Entry to check: `CC(C)c1ccccc1OCCNC(=S)NC(=O)c1cccnc1`
Resp: 99.7

Req: Entry to check: CCOC(=O)C1=C(N)Oc2c(oc(CO)cc2=O)C1c1ccc(F)c(F)c1 (stereo unspecified)
Resp: 104

Req: Entry to check: `Cc1cccc(C2=N/C(=C\c3cccnc3)C(=O)O2)c1`
Resp: 104

Req: Entry to check: `CCC1(c2ccccc2)C(=O)NCNC1=O`
Resp: 101

Req: Entry to check: `NS(=O)(=O)c1cc2c(cc1C(F)(F)F)NCNS2(=O)=O`
Resp: 101

Req: Entry to check: `CC[n+]1ccc2cc(OC)c(OC)cc2c1Cc1ccc(OC)c(OC)c1`
Resp: 106

Req: Entry to check: `O=c1[nH]c(=O)n([C@H]2C[C@H](O)[C@@H](CO)O2)cc1F`
Resp: 98

Req: Entry to check: `Cc1ccc(OCCSc2ncccn2)c(C)c1`
Resp: 98

Req: Entry to check: CCNCCC(CCC(C)C)c1ccc2c(c1)OCO2 (stereo unspecified)
Resp: 96.9

Req: Entry to check: `COc1cc2c(cc1OC)C1(CCCCC1)CN(C)C2`
Resp: 89

Req: Entry to check: O=C(C1CCCCC1)N1CC(=O)N2CCc3ccccc3C2C1 (stereo unspecified)
Resp: 101

Req: Entry to check: COc1ccc(C2N3CC4(C)CN2CC(C)(C3)C4)cc1OC (stereo unspecified)
Resp: 99

Req: Entry to check: `COc1ccc(OC)c(-c2oc3ccccc3c(=O)c2O)c1`
Resp: 97.5

Req: Entry to check: `CCn1c(=N)c(C(=O)NC)cc2c(=O)n3cccc(C)c3nc21`
Resp: 108

Req: Entry to check: `O=C(/C=C/c1ccc2c(c1)OCO2)c1ccccn1`
Resp: 102

Req: Entry to check: `O=C(NCCCCCc1nc2ccccc2[nH]1)c1ccccc1Cl`
Resp: 109

Req: Entry to check: `Cc1ccc(-n2ncc3c(Nc4cccc(C(=O)O)c4)ncnc32)cc1`
Resp: 101

Req: Entry to check: `Cc1ccc2c(c1)c1c(n2C)C(=O)CCC1`
Resp: 97.9

Req: Entry to check: `CCOC(=O)Cc1c(C)nc(N)[nH]c1=O`
Resp: 107

Req: Entry to check: `Nc1ccc(S(=O)(=O)c2ccc(N)cc2)cc1`
Resp: 100

Req: Entry to check: CC(C)CC(=O)OC1C(N2CCOCC2)c2c(ccc(/C=C/C(=O)N3CCOCC3)c2O)OC1(C)C (stereo unspecified)
Resp: 108

Req: Entry to check: `Cc1cccc(C)c1NS(=O)(=O)c1ccc(NC(=O)c2ccc(Cl)c([N+](=O)[O-])c2)cc1`
Resp: 100

Req: Entry to check: `COc1ccc(-c2cc(=O)oc3c(C)c(O)c(CN(C)C)cc23)cc1`
Resp: 98.3

Req: Entry to check: O=C(NC(CO)Cc1ccc([N+](=O)[O-])cc1)C(Cl)Cl (stereo unspecified)
Resp: 100

Req: Entry to check: `Cc1ccc(C(=O)N2CC3(C(C)C)CN(C(=O)c4ccc(C)cc4)CC(C(C)C)(C2)C3=O)cc1`
Resp: 99.1

Req: Entry to check: `CC(=O)c1c(C)[nH]c(C(=O)OCc2ccccc2)c1C`
Resp: 103

Req: Entry to check: `CC(C)NNC(=O)c1ccncc1`
Resp: 98.7

Req: Entry to check: `COc1ccc(CCNC(=S)NC(=O)/C=C/c2ccc(C)cc2)cc1OC`
Resp: 106

Req: Entry to check: `CCc1cn([C@H]2C[C@H](O)[C@@H](CO)O2)c(=O)[nH]c1=O`
Resp: 100

Req: Entry to check: `COC(=O)c1cc(OC)c(OC)cc1NC(=O)Nc1ccc(OC)cc1OC`
Resp: 100

Req: Entry to check: Cc1cc(C(=O)NC(CC(C)C)C(=O)O)cc(C)c1[N+](=O)[O-] (stereo unspecified)
Resp: 99
